# System: Strongyloides ratti L3
# Type: in vivo
# setup_conditions: 72 h incubation, 1 replicate
measured_parameter: S. ratti L3 % lethality 25 μM (%)

>  <compound>
FC(F)(F)c1cccc(N2CCN(CC3CC4C=CC3C4)CC2)c1 (centres unmarked)

>  <result_units>
%

>  <endpoint_result>
0

$$$$
>  <compound>
CC1CCC(N2CCN(c3cccc(Cl)c3)CC2)C1 (centres unmarked)

>  <result_units>
%

>  <endpoint_result>
17.9

$$$$
>  <compound>
O[C@@H]1CCCC[C@H]1N1CCC(c2ccccc2)CC1 (racemic) [vesamicol, reference compound]

>  <result_units>
%

>  <endpoint_result>
17.3

$$$$
>  <compound>
FC(F)(F)c1cccc(N2CCN(C3CCCCCCC3)CC2)c1

>  <result_units>
%

>  <endpoint_result>
0

$$$$
>  <compound>
Cc1ccc(N2CCN(CC3CC4C=CC3C4)CC2)cc1 (centres unmarked)

>  <result_units>
%

>  <endpoint_result>
0

$$$$
>  <compound>
FC(F)(F)c1cccc(N2CCN(C3CCCCCC3)CC2)c1

>  <result_units>
%

>  <endpoint_result>
0

$$$$
>  <compound>
Cc1ccc(N2CCN(C3CCC(C)C3)CC2)cc1 (centres unmarked)

>  <result_units>
%

>  <endpoint_result>
28.1

$$$$
>  <compound>
FC(F)(F)c1cccc(N2CCN(CC3CCCC3)CC2)c1

>  <result_units>
%

>  <endpoint_result>
0

$$$$
>  <compound>
Fc1ccccc1N1CCN(C2CCCCCC2)CC1

>  <result_units>
%

>  <endpoint_result>
66.7

$$$$
>  <compound>
Cc1ccc(N2CCN(CC3CC=CCC3)CC2)cc1 (centres unmarked)

>  <result_units>
%

>  <endpoint_result>
31.6

$$$$
>  <compound>
FC(F)(F)c1cccc(N2CCN(CC3CCCCC3)CC2)c1

>  <result_units>
%

>  <endpoint_result>
0

$$$$

###

# Tested on: D. immitis larval stage 3 (L3) worms
# assay_name: D. immitis L3 development assay
# Type: in vivo
# setup_conditions: 72 h, read-out: D. immitis L3 development EC50 (μM)
measured_parameter: EC50

>  <molecule>
Cc1ccc(N2CCN(CC3CC4C=CC3C4)CC2)cc1 (stereo not drawn)

>  <measured_parameter>
EC50

>  <endpoint_result>
> 50 µM

$$$$
>  <molecule>
Cc1ccc(N2CCN(C3CCC(C)C3)CC2)cc1 (stereo not drawn)

>  <measured_parameter>
EC50

>  <endpoint_result>
> 50 µM

$$$$
>  <molecule>
O=C(C1CCCCC1)N1CCN(c2ccc([N+](=O)[O-])cc2)CC1

>  <measured_parameter>
EC50

>  <endpoint_result>
> 50 µM

$$$$
>  <molecule>
FC(F)(F)c1cccc(N2CCN(C3CCCCCCC3)CC2)c1

>  <measured_parameter>
EC50

>  <endpoint_result>
> 50 µM

$$$$
>  <molecule>
Cc1cc(N2CCN(CC3CCCCC3)CC2)ccc1[N+](=O)[O-]

>  <measured_parameter>
EC50

>  <endpoint_result>
14 µM

$$$$
>  <molecule>
Cc1cc([N+](=O)[O-])ccc1N1CCN(CC2CCCCC2)CC1

>  <measured_parameter>
EC50

>  <endpoint_result>
15 µM

$$$$

###

# System: C. elegans L3 larvae
# assay_name: C. elegans L3 larvae abnormal locomotory behaviour on solid agar
# setup_conditions: 15 uM; 6 h exposure; solid agar MYOB + E. coli OP50; mean of 4 replicates
Given measured % C. elegans L3 larvae any phene 6 h (conc.), output Condition met if it is greater than or equal to 10% and Condition not met if not.

>  <molecule>
O=[N+]([O-])c1ccc(CN2CCN(C3CCCC3)CC2)cc1

>  <group>
Condition not met

$$$$
>  <molecule>
CC1CCC(N2CCN(c3cccc(Cl)c3)CC2)C1 (stereo not shown)

>  <group>
Condition met

$$$$
>  <molecule>
Cc1cc(N2CCN(CC3CCCCC3)CC2)ccc1[N+](=O)[O-]

>  <group>
Condition not met

$$$$
>  <molecule>
O=C(c1ccc([N+](=O)[O-])cc1)N1CCN(C2CCCC2)CC1

>  <group>
Condition not met

$$$$
>  <molecule>
O[C@@H]1CCCC[C@H]1N1CCC(c2ccccc2)CC1 (racemic) [vesamicol, reference compound]

>  <group>
Condition not met

$$$$
>  <molecule>
FC(F)(F)c1cccc(N2CCN(CC3CCCCC3)CC2)c1

>  <group>
Condition met

$$$$
>  <molecule>
FC(F)(F)c1cccc(N2CCN(C3CCCCCC3)CC2)c1

>  <group>
Condition met

$$$$
>  <molecule>
O=C(C1CCC1)N1CCN(c2ccc(F)cc2)CC1

>  <group>
Condition not met

$$$$
>  <molecule>
O=C(C1CCCCC1)N1CCN(c2ccc([N+](=O)[O-])cc2)CC1

>  <group>
Condition not met

$$$$
>  <molecule>
FC(F)(F)c1cccc(N2CCN(CC3CC4C=CC3C4)CC2)c1 (stereo not shown)

>  <group>
Condition met

$$$$
>  <molecule>
Cc1ccc(N2CCN(CC3CC4C=CC3C4)CC2)cc1 (stereo not shown)

>  <group>
Condition met

$$$$
>  <molecule>
Fc1ccccc1N1CCN(C2CCCCCC2)CC1

>  <group>
Condition met

$$$$
>  <molecule>
Cc1cc([N+](=O)[O-])ccc1N1CCN(CC2CCCCC2)CC1

>  <group>
Condition met

$$$$
>  <molecule>
c1cc(N2CCN(CC3CCC3)CC2)ccn1

>  <group>
Condition not met

$$$$
>  <molecule>
Cc1ccc(N2CCN(C3CCC(C)C3)CC2)cc1 (stereo not shown)

>  <group>
Condition met

$$$$
>  <molecule>
CCN1CCN(CC2CCCCC2)CC1

>  <group>
Condition not met

$$$$
>  <molecule>
c1cc(N2CCN(CC3CCCCC3)CC2)ccn1

>  <group>
Condition not met

$$$$
>  <molecule>
Cc1ccc(N2CCN(CC3CC=CCC3)CC2)cc1 (stereo not shown)

>  <group>
Condition met

$$$$
>  <molecule>
FC(F)(F)c1cccc(N2CCN(C3CCCCCCC3)CC2)c1

>  <group>
Condition not met

$$$$
>  <molecule>
O=C(C1CCCC1)N1CCN(c2ccc([N+](=O)[O-])cc2)CC1

>  <group>
Condition not met

$$$$
>  <molecule>
FC(F)(F)c1cccc(N2CCN(CC3CCCC3)CC2)c1

>  <group>
Condition met

$$$$
>  <molecule>
O=[N+]([O-])c1cccc(CN2CCN(C3CCCCC3)CC2)c1

>  <group>
Condition not met

$$$$

###

# Test system: Pristionchus pacificus young adult animals
# assay_name: Pristionchus pacificus young adult abnormal locomotory behaviour on solid agar
# Type: in vivo
# setup_conditions: 1 h, read-out: P. pacificus, young adult 1 h any phene at 1 h (EC50 (μM))
Attribute: EC50

>  <molecule>
Cc1cc(N2CCN(CC3CCCCC3)CC2)ccc1[N+](=O)[O-] [V-b]

>  <rel>
>

>  <EC50, µM>
60

$$$$
>  <molecule>
FC(F)(F)c1cccc(N2CCN(C3CCCCCCC3)CC2)c1 [VI-i]

>  <rel>
=

>  <EC50, µM>
49.6

$$$$
>  <molecule>
O=[N+]([O-])c1ccc(CN2CCN(C3CCCC3)CC2)cc1 [II-b]

>  <rel>
>

>  <EC50, µM>
60

$$$$
>  <molecule>
Cc1cc([N+](=O)[O-])ccc1N1CCN(CC2CCCCC2)CC1 [V-a]

>  <rel>
>

>  <EC50, µM>
60

$$$$
>  <molecule>
Cc1ccc(N2CCN(CC3CC=CCC3)CC2)cc1 (stereo not drawn) [VI-e]

>  <rel>
=

>  <EC50, µM>
5.7

$$$$
>  <molecule>
O=[N+]([O-])c1cccc(CN2CCN(C3CCCCC3)CC2)c1 [II-a]

>  <rel>
>

>  <EC50, µM>
60

$$$$
>  <molecule>
CCN1CCN(CC2CCCCC2)CC1 [I-a]

>  <rel>
>

>  <EC50, µM>
60

$$$$
>  <molecule>
Fc1ccccc1N1CCN(C2CCCCCC2)CC1 [VI-j]

>  <rel>
=

>  <EC50, µM>
41.5

$$$$
>  <molecule>
FC(F)(F)c1cccc(N2CCN(CC3CCCC3)CC2)c1 [VI-k]

>  <rel>
>

>  <EC50, µM>
60

$$$$
>  <molecule>
FC(F)(F)c1cccc(N2CCN(CC3CC4C=CC3C4)CC2)c1 (stereo not drawn) [VI-f]

>  <rel>
=

>  <EC50, µM>
2.8

$$$$
>  <molecule>
O[C@@H]1CCCC[C@H]1N1CCC(c2ccccc2)CC1 (racemic) [vesamicol, reference compound]

>  <rel>
>

>  <EC50, µM>
60

$$$$
>  <molecule>
CC1CCC(N2CCN(c3cccc(Cl)c3)CC2)C1 (stereo not drawn) [VI-d]

>  <rel>
=

>  <EC50, µM>
2.5

$$$$
